tgt: human FPR1 (Homo sapiens, UniProt P21462)
test: FPR1 cyclic adenosine monophosphate (cAMP) assay
condition: CHO cells overexpressing human FPR1; forskolin 10 μM; inhibition of cAMP production; HTRF; read-out: hFPR1 cAMP2 EC50
So I've got a bunch of compounds here, and I need their EC50 values.

Provide EC50 for all items below, preserving their order.
1. COc1cc(OCC(C)(C)O)nc(-n2c(=O)c(NC(=O)c3ccc(OC(F)F)cc3)c(-c3c(F)cc(OC)cc3F)n2C)c1 [Example 322]
2. COc1cc(F)c(-c2c(NC(=O)c3ccc(OC(F)F)cc3)c(=O)n(-c3nc(N(C4CC4)C4CC4)ccc3C(F)(F)F)n2C)c(F)c1 [Example 267]

> 10 µM
7.1 µM

* * *

So I've got a bunch of compounds here, and I need their pEC50 values.
tgt: human FPR1 (Homo sapiens)
Sequence (P21462 1-350): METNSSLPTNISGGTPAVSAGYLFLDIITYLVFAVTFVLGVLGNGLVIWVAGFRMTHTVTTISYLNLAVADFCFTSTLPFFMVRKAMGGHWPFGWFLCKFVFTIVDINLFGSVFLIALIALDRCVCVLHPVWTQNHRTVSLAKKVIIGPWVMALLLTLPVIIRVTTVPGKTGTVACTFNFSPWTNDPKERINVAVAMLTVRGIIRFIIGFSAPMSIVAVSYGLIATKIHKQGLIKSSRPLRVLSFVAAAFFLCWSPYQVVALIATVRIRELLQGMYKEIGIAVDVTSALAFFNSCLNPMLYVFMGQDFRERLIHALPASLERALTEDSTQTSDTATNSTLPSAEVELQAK
test: FPR1 cyclic adenosine monophosphate (cAMP) assay
condition: CHO cells overexpressing human FPR1; forskolin 10 μM; inhibition of cAMP production; HTRF; read-out: hFPR1 cAMP2 EC50
Description: N-formyl peptide receptors (FPRs) are a family of chemo attractant receptors that facilitate leukocyte response during inflammation. FPRs belong to the seven-transmembrane G protein-coupled receptor superfamily and are linked to inhibitory G-proteins (Gi). […] FPR2 and FPR1 Cyclic Adenosine Monophosphate (cAMP) Assays. […] The level of intracellular cAMP was determined using the HTRF HiRange cAMP assay reagent kit (Cisbio) according to manufacturer's instruction. […]
Give bare numbers, as −log10 of the molar value.

[
  {
    "compound": "COc1cc(F)c(-c2c(NC(=O)c3ccc(OC(F)F)cc3)c(=O)n(-c3cc(C#N)cc(C(F)(F)F)n3)n2C)c(F)c1",
    "tgt": "human FPR1 (Homo sapiens)",
    "pEC50": 5.59
  },
  {
    "compound": "COc1cc(F)c(-c2c(NC(=O)c3ccc(OC(F)F)cc3)c(=O)n(-c3nc(N4CCC(C)(O)C4)ccc3C(F)(F)F)n2C)c(F)c1 (stereo not drawn) [Example 284]",
    "tgt": "human FPR1 (Homo sapiens)",
    "pEC50": 5.74
  },
  {
    "compound": "COc1cc(F)c(-c2c(NC(=O)c3ccc(OC(F)F)cc3)c(=O)n(-c3ccccc3)n2C)c(F)c1",
    "tgt": "human FPR1 (Homo sapiens)",
    "pEC50": 5.62
  }
]

Next:
pEC50 lookup needed for COc1cc(F)c(-c2c(NC(=O)c3ccc(OC(F)F)cc3)c(=O)n(-c3nc(N4C5CCC4CN(C)C5)ccc3C(F)(F)F)n2C)c(F)c1 , thanks. 5.15

* * *

So I've got a bunch of compounds here, and I need their EC50 values.
tgt: human FPR1 (Homo sapiens, UniProt P21462)
Sequence (P21462 1-350): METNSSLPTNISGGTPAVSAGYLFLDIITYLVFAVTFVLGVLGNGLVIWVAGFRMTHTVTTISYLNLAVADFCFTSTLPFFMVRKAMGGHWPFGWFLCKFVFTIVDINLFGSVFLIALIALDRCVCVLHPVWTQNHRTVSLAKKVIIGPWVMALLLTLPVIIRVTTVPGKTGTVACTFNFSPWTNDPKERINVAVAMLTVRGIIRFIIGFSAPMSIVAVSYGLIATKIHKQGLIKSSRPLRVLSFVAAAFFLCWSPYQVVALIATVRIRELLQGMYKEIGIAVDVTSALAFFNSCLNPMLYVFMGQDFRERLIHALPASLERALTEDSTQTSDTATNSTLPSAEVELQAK
test: FPR1 cyclic adenosine monophosphate (cAMP) assay
condition: CHO cells overexpressing human FPR1; forskolin 10 μM; inhibition of cAMP production; HTRF; read-out: hFPR1 cAMP2 EC50
Give bare numbers, in µM.

[
  {
    "entry_smiles": "COc1cc(F)c(-c2c(NC(=O)c3ccc(OC(F)F)cc3)c(=O)n(-c3nc(C(C)(C)O)ccc3Cl)n2C)c(F)c1",
    "EC50 [µM]": 2.89
  }
]

Next:
EC50 lookup needed for COc1cc(F)c(-c2c(NC(=O)c3ccc(OC(F)F)cc3)c(=O)n(-c3nc(N4CC(C)(O)C4)ccc3C(F)(F)F)n2C)c(F)c1 , thanks. 4.8

* * *

tgt: human FPR1 (Homo sapiens, UniProt P21462)
test: FPR1 cyclic adenosine monophosphate (cAMP) assay
condition: CHO cells overexpressing human FPR1; forskolin 10 μM; inhibition of cAMP production; HTRF; read-out: hFPR1 cAMP2 EC50
value_kind: EC50

Reference set, count: 5
[
  {
    "compound": "COc1cc(C2CCN(S(C)(=O)=O)CC2)nc(-n2c(=O)c(NC(=O)c3ccc(OC(F)F)cc3)c(-c3c(F)cc(OC)cc3F)n2C)c1",
    "value_kind": "EC50",
    "value_measured": "> 10000 nM"
  },
  {
    "compound": "COc1cc(OCC2(C)COC2)nc(-n2c(=O)c(NC(=O)c3ccc(OC(F)F)cc3)c(-c3c(F)cc(OC)cc3F)n2C)c1",
    "value_kind": "EC50",
    "value_measured": "2400 nM"
  },
  {
    "compound": "COc1cc(F)c(-c2c(NC(=O)c3ccc(OC(F)F)cc3)c(=O)n(-c3cccc(-n4ccc(C)n4)n3)n2C)c(F)c1",
    "value_kind": "EC50",
    "value_measured": "5 nM"
  },
  {
    "compound": "COc1cc(F)c(-c2c(NC(=O)c3ccc(OC(F)(F)F)cc3)c(=O)n(-c3ccccc3C#N)n2C)c(F)c1",
    "value_kind": "EC50",
    "value_measured": "> 10000 nM"
  },
  {
    "compound": "COc1cc(F)c(-c2c(NC(=O)c3ccc(OC(F)F)cc3)c(=O)n(-c3nc(NCC4(O)CC4)ccc3C(F)(F)F)n2C)c(F)c1",
    "value_kind": "EC50",
    "value_measured": "> 10000 nM"
  }
]

Provide EC50 for all items below, preserving their order.
1. COc1cc(F)c(-c2c(NC(=O)c3ccc(OC(F)F)cc3)c(=O)n(-c3cccc(N4CC(C)(C)C4)n3)n2C)c(F)c1
2. COc1cc(F)c(-c2c(NC(=O)c3ccc(-n4cccn4)cc3)c(=O)n(-c3ccccc3)n2C)c(F)c1
3. COc1cc(F)c(-c2c(NC(=O)c3ccc(OC(F)(F)F)cc3)c(=O)n(-c3ccccc3Cl)n2C)c(F)c1
4. COc1cc(F)c(-c2c(NC(=O)c3ccc(OC(F)F)cc3)c(=O)n(-c3nc(NC(C)(C)C)ccc3C(F)(F)F)n2C)c(F)c1
5. COc1cc(F)c(-c2c(NC(=O)c3ccc(OC(F)F)cc3)c(=O)n(-c3nc(NCCO)ccc3C(F)(F)F)n2C)c(F)c1
6. COc1cc(F)c(-c2c(NC(=O)c3ccc(OC(F)(F)F)cc3)c(=O)n(-c3ccccc3F)n2C)c(F)c1
7. COc1cc(F)c(-c2c(NC(=O)c3ccc(OC(F)(F)F)cc3)c(=O)n(-c3cccc(-n4ccc(C)n4)n3)n2C)c(F)c1

["1500 nM", "3000 nM", "3300 nM", "> 10000 nM", "> 10000 nM", "2500 nM", "5 nM"]

Provide EC50 for all items below, preserving their order.
1. COc1cc(OCC(O)C(F)(F)F)nc(-n2c(=O)c(NC(=O)c3ccc(OC(F)F)cc3)c(-c3c(F)cc(OC)cc3F)n2C)c1 (centres unmarked) [Example 380]
2. COc1cc(F)c(-c2c(NC(=O)c3ccc(OC(F)F)cc3)c(=O)n(-c3nc(C(F)(F)F)ccc3OCCO)n2C)c(F)c1
3. COc1cc(F)c(-c2c(NC(=O)c3ccc(OC(F)F)cc3)c(=O)n(-c3cc(Cl)cc(C(F)(F)F)c3)n2C)c(F)c1
4. COc1cc(-n2c(=O)c(NC(=O)c3ccc(OC(F)F)cc3)c(-c3c(F)cc(OC)cc3F)n2C)nc(C2(O)CCC2)c1
5. COc1cc(F)c(-c2c(NC(=O)c3ccc(OC(F)F)cc3)c(=O)n(-c3ccc(F)cc3)n2C)c(F)c1

["2300 nM", "> 10000 nM", "> 10000 nM", "1600 nM", "1600 nM"]

Provide EC50 for all items below, preserving their order.
1. COc1cc(OCCS(C)(=O)=O)nc(-n2c(=O)c(NC(=O)c3ccc(OC(F)F)cc3)c(-c3c(F)cc(OC)cc3F)n2C)c1
2. COc1cc(F)c(-c2c(NC(=O)c3ccc(OC(F)(F)F)cc3)c(=O)n(-c3ccc(C)cn3)n2C)c(F)c1
3. COc1cc(F)c(-c2c(NC(=O)c3ccc(OC(F)F)cc3)c(=O)n(-c3cc(F)ccc3Cl)n2C)c(F)c1
4. COc1cc(F)c(-c2c(NC(=O)c3ccc(OC(F)F)cc3)c(=O)n(-c3nc(NC4(C)CC4)ccc3C(F)(F)F)n2C)c(F)c1

["> 10000 nM", "1300 nM", "> 10000 nM", "> 10000 nM"]

Provide EC50 for all items below, preserving their order.
1. COc1cc(F)c(-c2c(NC(=O)c3ccc(OC(F)F)cc3)c(=O)n(-c3nc(N4CCC(C)(O)CC4)ccc3C(F)(F)F)n2C)c(F)c1
2. COCc1ccc(C(F)(F)F)c(-n2c(=O)c(NC(=O)c3ccc(OC(F)F)cc3)c(-c3c(F)cc(OC)cc3F)n2C)n1
3. COc1ccc(-c2c(NC(=O)c3ccc(OC(F)F)cc3)c(=O)n(-c3ncccc3Cl)n2C)cc1F
4. COc1cc(F)c(-c2c(NC(=O)c3ccc(OC(F)F)cc3)c(=O)n(-c3cc(OC(C)C)cc(OCCO)n3)n2C)c(F)c1
5. COc1ccc(-c2c(NC(=O)c3ccc(OC(F)F)cc3)c(=O)n(-c3ncccc3Cl)n2C)c(F)c1

2700 nM
> 10000 nM
1400 nM
25 nM
2000 nM
